Assign pKi to each entry below.
Target Entity: human dopamine D1 receptor (Homo sapiens)
Construct: A 1.4 Kb Hind III to Xho I fragment was subcloned into the vector pMMLV; expressed in transfected cells; host or cells: CHO cells, clone CHO-D1M#9 (plasmid pHD1MMLV), membranes
Test Summary: [3H]-SCH-23390 binding to cloned human dopamine D1 receptors (CHO cell membranes)
Condition Set: competitive binding, [3H]-SCH-23390, cloned human D1 in CHO membranes; read-out: D1 affinity Ki
Where a name gives a salt, the structure may show the parent alone.
Please express pKi as -log10 of the molar concentration.

Query: What value of pKi has been recorded for this entry: CNC[C@@H]1O[C@H](C2CCN(Cc3ccc(F)c(F)c3)CC2)Cc2c1ccc(C)c2O [Example 100, dihydrochloride]
Response: 7.37

Query: Can you handle "CCN(C)C[C@@H]1O[C@H](C2CCN(Cc3ccccc3)CC2)Cc2c1ccc(C)c2O" next?
Response: 6.37

Query: Can you handle Cc1ccc2c(c1O)C[C@@H](C1CCN(S(=O)(=O)c3ccc(Cl)cc3Cl)CC1)O[C@H]2CN [Example 149, hydrochloride] next?
Response: 6.67

Query: Can you handle CCN(CC)C(=O)N1CCC([C@@H]2Cc3c(ccc(C)c3O)[C@H](CN)O2)CC1 [Example 136, hydrochloride] next?
Response: 6.79

* * *

Counter-ions that a name gives are not always drawn.
Recorded log10 of Ki values (human dopamine D2Long (D2L) receptors (Homo sapiens, UniProt P14416)) are given below.
Please be aware that the numbers have been log10-transformed from Ki in nM.

Query: What value of log10 of Ki has been recorded for this entry: Cc1ccc2c(c1O)C[C@@H](C1CCN(S(=O)(=O)c3ccc(C(C)(C)C)cc3)CC1)O[C@H]2CN [Example 146, hydrochloride]
Response: 2.73

Query: Can you handle Cc1ccc2c(c1O)C[C@@H](C1CCN(Cc3cn(C)c4ccccc34)CC1)O[C@H]2CN [Example 90, trihydrochloride] next?
Response: 0.38

Query: Can you handle Cc1ccc2c(c1O)C[C@@H](C1CCN(S(=O)(=O)N3CCc4ccccc4C3)CC1)O[C@H]2CN [Example 167, hydrochloride] next?
Response: 2.72

Query: Can you handle "CCNC[C@@H]1O[C@H](C2CCN(CC(=O)c3ccccc3)CC2)Cc2c1ccc(C)c2O" next?
Response: 2.33

Query: Can you handle Cc1ccc2c(c1O)C[C@@H](C1CCN(Cc3ccc(F)cc3F)CC1)O[C@H]2CN [Example 50, dihydrochloride] next?
Response: 2.56

Query: Can you handle Cc1ccc2c(c1O)C[C@@H](C1CCN(Cc3cc(C(F)(F)F)ccc3Cl)CC1)O[C@H]2CN [Example 77, dihydrochloride] next?
Response: 1.60

Query: Can you handle Cc1ccc2c(c1O)C[C@@H](C1CCN(CCc3ccccc3)CC1)O[C@H]2CN [Example 106, dihydrobromide] next?
Response: 2.44

Query: Can you handle COc1ccc(OC(=O)N2CCC([C@@H]3Cc4c(ccc(C)c4O)[C@H](CN)O3)CC2)cc1 [Example 120, hydrochloride] next?
Response: 2.88

Query: Can you handle Cc1ccc2c(c1O)C[C@@H](C1CCN(C(=O)N3c4ccccc4Sc4ccccc43)CC1)O[C@H]2CN [Example 137, hydrochloride] next?
Response: 2.21

Query: Can you handle Cc1ccc2c(c1O)C[C@@H](C1CCN(Cc3sc4ccccc4c3C)CC1)O[C@H]2CN [Example 86, dihydrochloride] next?
Response: 1.99

* * *

Target Entity: human dopamine D1 receptor (Homo sapiens, UniProt P21728)
Construct: A 1.4 Kb Hind III to Xho I fragment was subcloned into the vector pMMLV; expressed in transfected cells; host or cells: CHO cells, clone CHO-D1M#9 (plasmid pHD1MMLV), membranes
Sequence (P21728 whole entry, the tested form may be a part): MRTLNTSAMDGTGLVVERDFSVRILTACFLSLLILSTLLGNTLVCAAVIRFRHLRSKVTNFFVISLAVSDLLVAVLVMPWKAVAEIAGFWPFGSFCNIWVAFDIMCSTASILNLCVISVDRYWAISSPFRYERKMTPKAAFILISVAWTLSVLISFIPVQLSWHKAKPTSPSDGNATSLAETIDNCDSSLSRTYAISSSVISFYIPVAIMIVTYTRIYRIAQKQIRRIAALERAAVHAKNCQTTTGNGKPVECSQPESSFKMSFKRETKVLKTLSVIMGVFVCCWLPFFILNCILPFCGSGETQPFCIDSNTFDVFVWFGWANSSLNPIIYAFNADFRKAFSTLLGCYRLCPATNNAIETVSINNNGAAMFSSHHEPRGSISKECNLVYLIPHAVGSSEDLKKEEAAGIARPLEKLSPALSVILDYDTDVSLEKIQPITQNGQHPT
Test Summary: [3H]-SCH-23390 binding to cloned human dopamine D1 receptors (CHO cell membranes)
Condition Set: competitive binding, [3H]-SCH-23390, cloned human D1 in CHO membranes; read-out: D1 affinity Ki
Counter-ions that a name gives are not always drawn.
Assign log10(Ki) to each entry below.
Please be aware that the numbers have been log10-transformed from Ki in nM.

Query: What value of log10(Ki) has been recorded for this entry: Cc1ccc2c(c1O)C[C@@H](C1CCN(Cc3nc4ccccc4n3C)CC1)O[C@H]2CN [Example 92, trihydrochloride]
Response: 1.47

Query: Can you handle COc1cccc(CN2CCC([C@@H]3Cc4c(ccc(C)c4O)[C@H](CN)O3)CC2)c1 [Example 31, dihydrochloride] next?
Response: 1.08

Query: Can you handle Cc1ccc2c(c1O)C[C@@H](C1CCN(Cc3ccc(C(F)(F)F)cc3)CC1)O[C@H]2CN(C)C [Example 168] next?
Response: 1.65

Query: Can you handle Cc1ccc2c(c1O)C[C@@H](C1CCN(Cc3ccc(F)cc3)CC1)O[C@H]2CN [Example 26, dihydrobromide] next?
Response: 1.52

Query: Can you handle Cc1cccc(CN2CCC([C@@H]3Cc4c(ccc(C)c4O)[C@H](CN)O3)CC2)c1 [Example 65, dihydrochloride] next?
Response: 1.53

Query: Can you handle Cc1ccc2c(c1O)C[C@@H](C1CCN(Cc3ccc(-c4ccccc4)cc3)CC1)O[C@H]2CN [Example 49, dihydrochloride] next?
Response: 1.68

Query: Can you handle Cc1ccc2c(c1O)C[C@@H](C1CCN(C(=O)Nc3ccccc3F)CC1)O[C@H]2CN [Example 129, hydrochloride] next?
Response: 2.05

Query: Can you handle Cc1ccc2c(c1O)C[C@@H](C1CCN(C(=O)N(C(C)C)C(C)C)CC1)O[C@H]2CN [Example 133, hydrochloride] next?
Response: 2.38

Query: Can you handle COc1ccc(S(=O)(=O)N2CCC([C@@H]3Cc4c(ccc(C)c4O)[C@H](CN)O3)CC2)cc1OC [Example 144, hydrochloride] next?
Response: 1.96

Query: Can you handle Cc1ccc2c(c1O)C[C@@H](C1CCN(C/C=C/c3ccccc3)CC1)O[C@H]2CN [Example 109, dihydrobromide] next?
Response: 2.03

Query: Can you handle Cc1ccc2c(c1O)C[C@@H](C1CCN(Cc3ccnc4ccccc34)CC1)O[C@H]2CN [Example 57, dihydrochloride] next?
Response: 1.78

Query: Can you handle Cc1ccc2c(c1O)C[C@@H](C1CCN(Cc3ccccc3F)CC1)O[C@H]2CN [Example 36, dihydrobromide] next?
Response: 1.63

Query: Can you handle Cc1ccc2c(c1O)C[C@@H](C1CCN(C(C)Cc3ccccc3)CC1)O[C@H]2CN (stereo partly drawn) [Example 30, dihydrobromide] next?
Response: 1.74

Query: Can you handle Cc1ccc2c(c1O)C[C@@H](C1CCN(Cc3ccccn3)CC1)O[C@H]2CN [Example 52, dihydrochloride] next?
Response: 2.05

Query: Can you handle Cc1ccc2c(c1O)C[C@@H](C1CCN(C(=O)N3c4ccccc4Sc4ccccc43)CC1)O[C@H]2CN [Example 137, hydrochloride] next?
Response: 2.61

Query: Can you handle Cc1ccc2c(c1O)C[C@@H](C1CCN(Cc3cccc(C(F)(F)F)c3Cl)CC1)O[C@H]2CN [Example 79, dihydrochloride] next?
Response: 1.91

Query: Can you handle COc1ccc(CN2CCC([C@@H]3Cc4c(ccc(C)c4O)[C@H](CN)O3)CC2)cc1 [Example 61, dihydrochloride] next?
Response: 1.30

Query: Can you handle Cc1ccc2c(c1O)C[C@@H](C1CCN(S(=O)(=O)c3cc(Cl)ccc3Cl)CC1)O[C@H]2CN [Example 151, hydrochloride] next?
Response: 1.91

Query: Can you handle Cc1ccc2c(c1O)C[C@@H](C1CCN(CCc3cccc(Cl)c3)CC1)O[C@H]2CN [Example 107, dihydrobromide] next?
Response: 2.97

Query: Can you handle Cc1ccc2c(c1O)C[C@@H](C1CCN(CCC(C)NC(=O)c3ccc(-c4ccccc4)cc3)CC1)O[C@H]2CN (stereo partly drawn) [Example 18, dihydrochloride] next?
Response: 2.39

Query: Can you handle Cc1ccc2c(c1O)C[C@@H](C1CCN(S(=O)(=O)C[C@@]34CC[C@@H](CC3=O)C4(C)C)CC1)O[C@H]2CN [Example 162, hydrochloride] next?
Response: 2.58

Query: Can you handle Cc1ccc2c(c1O)C[C@@H](C1CCN(S(=O)(=O)c3ccc(C(C)(C)C)cc3)CC1)O[C@H]2CN [Example 146, hydrochloride] next?
Response: 1.95

Query: Can you handle Cc1ccc2c(c1O)C[C@@H](C1CCN(S(=O)(=O)c3ccccc3)CC1)O[C@H]2CN [Example 141, hydrochloride] next?
Response: 2.29

Query: Can you handle Cc1ccc2c(c1O)C[C@@H](C1CCN(S(=O)(=O)N(C)C)CC1)O[C@H]2CN [Example 164, hydrochloride] next?
Response: 2.60

Query: Can you handle Cc1ccc2c(c1O)C[C@@H](C1CCN(CCC(C)NC(=O)c3cc4ccccc4s3)CC1)O[C@H]2CN (stereo partly drawn) [Example 20, dihydrochloride] next?
Response: 1.72

Query: Can you handle C=CCN(CC=C)C[C@@H]1O[C@H](C2CCN(Cc3ccccc3)CC2)Cc2c1ccc(C)c2O [Example 187] next?
Response: 3.42

Query: Can you handle Cc1ccc2c(c1O)C[C@@H](C1CCN(Cc3cccc(Cl)c3)CC1)O[C@H]2CN [Example 37, dihydrobromide] next?
Response: 1.25
